Below, each entry is listed alongside its reported AC50.
Tested on: HTT mRNA
method: Splicing RT-qPCR assay, HTT canonical (CJ) and alternative (AJ) junction mRNA
Assay type: cell-based
test parameters: Homo sapiens, increase in AJ mRNA, A673 or K562 cells, 24 hours treatment
Counter-ions that a name gives are not always drawn.

Below, 2 compounds whose answers are already recorded.
compound	assay system	measured endpoint	value observed
Cc1cn2cc(-c3cc4ncn(N5CCNCC5)c(=O)c4s3)cc(F)c2n1 [Compound 269]	HTT mRNA	AC50	100 to 1000 nM
Cc1cn2cc(-c3cc4ncn([C@H]5CCN[C@H](C)C5)c(=O)c4s3)cc(F)c2n1 (relative stereo) [Compound 277]	HTT mRNA	AC50	100 to 1000 nM

Continue with the compound presented below.
Retrieve AC50 measured for Cc1cn2cc(-c3cc4ncn([C@H]5CCN[C@@H](C)C5)c(=O)c4s3)cc(F)c2n1 (relative stereo) [Compound 278, hydrochloride] and print it.
100 to 1000 nM

====

Test system: HTT mRNA
method: Splicing RT-qPCR assay, HTT canonical (CJ) and alternative (AJ) junction mRNA
Type: cell-based
test parameters: Homo sapiens, decrease in CJ mRNA, A673 or K562 cells, 24 hours treatment
measured endpoint: IC50

Worked examples follow.
compound	assay system	IC50
Cc1cc(-c2nn3c(=O)cc(N4CCNCC4)nc3s2)cc2cn(C)nc12 [Compound 206]	HTT mRNA	1000 to 10000 nM
Cc1cn2cc(-c3cc4ncn([C@H]5CNCC[C@@H]5O)c(=O)c4s3)cc(F)c2n1 (relative stereo) [Compound 281]	HTT mRNA	1000 to 10000 nM
Cc1cn2cc(-c3cc4ncn(C5CCCNCC5)c(=O)c4s3)cc(F)c2n1 (centres unmarked) [Compound 275]	HTT mRNA	100 to 1000 nM

Now turn to the next compound.
Give the measured IC50 for Cc1cn2nc(-c3nc4cnn(C5CCNCC5)c(=O)c4s3)cc(C)c2n1 [Compound 810]
100 to 1000 nM

====

Readings of IC50 for the listed molecules
System: SMN2 CJ mRNA
method: Gene panel canonical junction qPCR assay, SMN2
Format: cell-based
test parameters: Homo sapiens, larger gene panel, read-out: SMN2 IC50 (decrease in CJ mRNA levels)

Recorded IC50, per entry:
molecule	assay system	IC50
Cc1cc(-c2nn3c(=O)cc(N4CCNCC4)nc3s2)cc2cn(C)nc12 [Compound 206]	SMN2 CJ mRNA	100 to 1000 nM
Cc1cc(-c2cc3ccn(C4CCNCC4)c(=O)c3s2)cc2cn(C)nc12 [Compound 805]	SMN2 CJ mRNA	< 100 nM
Cc1cn2cc(-c3nc4ncn(C5CCNCC5)c(=O)c4s3)cc(F)c2n1 [Compound 232]	SMN2 CJ mRNA	< 100 nM

Then this molecule:
Give a short answer stating reported IC50 for Cc1cn2cc(-c3cc4ncn(C5CCN(C)CC5)c(=O)c4s3)cc(F)c2n1 [Compound 265] .
< 100 nM

====

method: in vitro
test parameters: human
Structures can show the parent of a compound that is named as a salt.
Collected GI50 at 72 h values appear next to each entry.

Using the record for `Cc1cn2nc(-c3cc(=O)n4cc(N(C)C5CC(C)(C)NC(C)(C)C5)sc4n3)cc(C)c2n1` , state its measured GI50 at 72 h.
1 to 10 µM

For the molecule `Cc1cn2cc(-c3nn4c(=O)cc(N(C)C5CC(C)(C)NC(C)(C)C5)nc4s3)cc(F)c2n1` , give its measured GI50 at 72 h value.
1 to 10 µM

Look up and state reported GI50 at 72 h for Cc1cn2cc(-n3cnc4nc(N(C)C5CC(C)(C)NC(C)(C)C5)sc4c3=O)cc(F)c2n1 [Compound 227, formate]
> 10 µM
